Data provenance: PubChem BioAssay (NCI)

Test: NCI Yeast Anticancer Drug Screen. Data for the rad14 strain (AID 159);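 further: 0% = growth of vehicle-treated control cultures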
Conditions: S. cerevisiae rad14 strain growth inhibition; at 11.0 µM; stronger effect = higher value
This is part of a sample that, as a whole, favours compounds with a hit. Of some 79,000 tested, about 15% had one in any assay. Residues, ends and D or L forms follow the SMILES beside them. *: point of attachment. Fmoc = O=C(OCC1c2ccccc2-c2ccccc21)*; Boc = CC(C)(C)OC(=O)*
The following compounds are listed with their measured growth inhibition values.
// note: answer is a bare numeric in %

Below, each entry is followed by its recorded growth inhibition result.
CC1(C)C(O)OC(O)C1(C)C (configuration not stated)	0
CC(C)(C)OC(=O)NCCCCC(NC(=O)C(Cc1c[nH]c2ccccc12)NC(=O)OCC1c2ccccc2-c2ccccc21)C(=O)O (configuration not stated) (Fmoc-Trp-Lys(Boc)-OH; configuration not given here)	1
Cc1ccc(S(=O)(=O)NC(=O)C2C(=O)CC3(CCCCC3)CC2=O)cc1	3
CCN(CC)C(=S)SC(=S)N(CC)CC	34

Tell me the measured growth inhibition of `O=[N+]([O-])c1ccc(/C=C\c2ccc3c(c2)OCO3)c([N+](=O)[O-])c1` , please.
12

Same question for `Cc1cc(C)c2[s+]snc2c1` please.
5

Same question for `O=C(O)/C=C\C(=O)Nc1ccc2c(c1)Cc1cc(Cl)ccc1-2` please.
-3
